test system: Escherichia coli; details: Concentration 32 ug.mL-1; ASSAY_TEST Inhibition of Bacterial Growth; detection method Absorption (OD600); MEDIA CAMHB; plate type 384well; NBS; CORNING #3640; time 18 hr
Description: Antibacterial activity against Escherichia coli ATCC 25922 (CO-ADD:GN_001); MIC in CAMBH media using NBS plates, by OD(600)
Potency and affinity values are given separately.
measured-property: Inhibition (%)

C[C@]12CC[C@@H](O1)[C@H]1C=C[C@H](OC(=O)c3ccccc3)[C@H]12: 2.42
C[C@]12CC[C@@](C3CCCC3)(O1)[C@H]1C=C[C@H](OC(=O)c3ccccc3)[C@H]12: 7.38
C=C1CC(COC)(COC)C[C@@H]1[C@@H](Nc1ccc(Br)cc1)c1ccccc1: -1.74
C[C@@H]1CC(=O)C=C2C(=O)[C@@H]3[C@@H](C3(C)C)[C@]21C: 3.69

* * *

Each entry below carries its reported Inhibition.
tested on: Escherichia coli; settings: Concentration 32 ug.mL-1; ASSAY_TEST Inhibition of Bacterial Growth; detection method Absorption (OD600); MEDIA CAMHB; plate type 384well; NBS; CORNING #3640; time 18 hr
Entries with a potency or affinity are not part of this list.
measured-property: Inhibition (%)

C=C1CC(C(=O)OC)(C(=O)OC)C[C@@H]1[C@@H](NS(=O)(=O)c1ccc(C)cc1)c1ccccc1: -0.02
C[C@]12CC[C@@](c3ccc4ccccc4c3)(O1)[C@H]1C=C[C@H](OC(=O)c3ccccc3)[C@H]12: -2.58
C[C@]12CC[C@@](C)(O1)[C@H]1C=C[C@H](OC(=O)c3ccccc3)[C@H]12: 0.47
C=C1CC(COCc2ccc(OC)cc2)(COCc2ccc(OC)cc2)C[C@@H]1[C@@H](Nc1ccc(Br)cc1)c1ccccc1: -13.28
C=C1CC(C(=O)OC)(C(=O)OC)C[C@@H]1[C@H](c1ccccc1)n1ccc2ccc(Cl)cc21: 1.22

* * *

system: Staphylococcus aureus; conditions: Concentration 32 ug.mL-1; ASSAY_TEST Inhibition of Bacterial Growth; detection method Absorption (OD600); MEDIA CAMHB; plate type 384well; NBS; CORNING #3640; time 18 hr
Description: Antibacterial activity against Staphylococcus aureus MRSA ATCC 43300 (CO-ADD:GP_020); MIC in CAMBH media, using NBS plates, by OD(600)
Measured potencies and affinities stand elsewhere.
Each entry below carries its reported Inhibition.
measured-property: Inhibition (%)

C[C@]12CC[C@@H](O1)[C@H]1C=C[C@H](OC(=O)c3ccccc3)[C@H]12: 21.38
C[C@]12CC[C@@](C)(O1)[C@H]1C=C[C@H](OC(=O)c3ccccc3)[C@H]12: 17.97
C=C1CC(COCc2ccc(OC)cc2)(COCc2ccc(OC)cc2)C[C@@H]1[C@@H](Nc1ccc(Br)cc1)c1ccccc1: -1.38
C=C1CC2(COC(C)(C)OC2)C[C@@H]1[C@@H](Nc1ccc(Br)cc1)c1ccccc1: 25.91
C[C@]12CC[C@@](c3ccc4ccccc4c3)(O1)[C@H]1C=C[C@H](OC(=O)c3ccccc3)[C@H]12: 16.21
